# growth inhibition values compiled below
Assay: NCI Yeast Anticancer Drug Screen. Data for the mlh1 rad18 strain (AID 175)
Conditions: S. cerevisiae mlh1 rad18 strain growth inhibition; at 50.0 µM; hits give high values
The panel holds about 79,000 compounds, 15% with a hit somewhere; the sample as a whole holds those more often.
Return type: number; implicit unit %.

compound	result units	growth inhibition
CCOC(=O)C(=O)NC12CC3CC(CC(C3)C1)C2	%	-8.3
O=C(Nc1ccccc1)C1(Cl)CCCCC1	%	1.8
CC(=O)NC1C(OCc2ccccc2)OC(CO)C(O)C1OC(C)C(=O)NC(C)C(=O)N[C@@H](CCC(=O)OCCCNC1c2ccccc2Nc2cccc([N+](=O)[O-])c21)C(N)=O (stereo not given in full)	%	77.8

-- ask I'd like to know its growth inhibition. The compound in question is "Nc1nc(SCC(=O)c2ccc(Br)cc2)c2[nH]cnc2n1"
-- reply 26.9

-- ask Please answer likewise for "O/N=C1\CCCC\C1=N/O"
-- reply -4.25

* * *

# growth inhibition values compiled below
Assay: NCI Yeast Anticancer Drug Screen. Data for the rad50 strain (AID 155);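 further: 0% = growth of vehicle-only cultures of the same strain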
Details: S. cerevisiae rad50 strain growth inhibition; at 50.0 µM; hits give high values
This is part of a sample that, as a whole, favours compounds with a hit. Of some 79,000 tested, about 15% had one in any assay. The source made the active and inactive calls. Cut-off read from the data, not from the text of the source: active = growth inhibition above about 70%; inactive = the rest.

Worked set:
> print(dat)
                                   molecule           quantity     value.reported
1  CCOC(=O)C(C#N)S(C)(=O)=O (stereo not given)  growth inhibition   4.55% (inactive)
2         CN(C)CCOc1c(Cc2ccccc2)ccc2cccnc12  growth inhibition  -1.65% (inactive)
3          CCOc1c(N=Nc2ccccc2)c(C)nn1C(N)=S  growth inhibition  -55.9% (inactive)

-- ask I'd like to know its growth inhibition. The molecule in question is "[O-][N+]1(CC[N+]2([O-])CCCCC2)CCCCC1"
-- reply -16.8% (inactive)

-- ask Please answer likewise for CCOc1cc2c(cc1C(CC)c1ccccc1)OCO2 (stereo not given)
-- reply 6.75% (inactive)

-- ask Please answer likewise for "Cc1cc(O)c(C=NC(=S)c2ccccc2)c(=O)o1"
-- reply -14.1% (inactive)

-- ask Please answer likewise for Cc1ccc(S(=O)(=O)N/N=C/C(O)C(O)C(O)C(O)CO)cc1 (stereo not given)
-- reply 5.9% (inactive)

-- ask Please answer likewise for "CCOC(=O)C(CCC(C)=O)C(=O)OCC"
-- reply -1.25% (inactive)

* * *

# growth inhibition values compiled below
Assay: NCI Yeast Anticancer Drug Screen. Data for the sgs1 mgt1 strain (AID 161);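 further: 0% = growth of cultures given vehicle only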
Details: S. cerevisiae sgs1 mgt1 strain, at 50.0 µM, hits give high values
About 79,000 compounds went through this panel and 15% of them were active in at least one assay; those are over-represented in the sample as a whole.
Return type: number; implicit unit %.

Worked set:
> print(dat)
                                   molecule  result.units  value.reported
1  O=C1OC2C(Cl)C3CC1C2C3 (configuration not stated)             %           -22.3
2        CCOc1ccc(N=C(NC(=O)c2ccccc2)SC)cc1             %           -0.15
3               Cc1oc2nc(N(C)C)n3nnnc3c2c1C             %           -6.15
4                     Cc1ccc(CNc2ccccc2)cc1             %            27.3
5  O=c1/c(=C/c2ccc(Cl)cc2Cl)sc2nc3ccccc3n12             %           -0.15
6               O=C(/C=C/c1ccccc1O)c1ccccc1             %             3.2

Let us move to another entry and its growth inhibition.
-- ask I'd like to know its growth inhibition. The molecule in question is COC(=O)C1=C(O)C(C(=O)OC)[C@@]2(O)[C@@H](C(=O)OC)CC[C@@H]1[C@@H]2C(=O)OC (some centres not stated)
-- reply -13.8
